- ASSAY SYSTEM: Protein smoothened (Mus musculus, UniProt P56726)
- Sequence (P56726 whole entry): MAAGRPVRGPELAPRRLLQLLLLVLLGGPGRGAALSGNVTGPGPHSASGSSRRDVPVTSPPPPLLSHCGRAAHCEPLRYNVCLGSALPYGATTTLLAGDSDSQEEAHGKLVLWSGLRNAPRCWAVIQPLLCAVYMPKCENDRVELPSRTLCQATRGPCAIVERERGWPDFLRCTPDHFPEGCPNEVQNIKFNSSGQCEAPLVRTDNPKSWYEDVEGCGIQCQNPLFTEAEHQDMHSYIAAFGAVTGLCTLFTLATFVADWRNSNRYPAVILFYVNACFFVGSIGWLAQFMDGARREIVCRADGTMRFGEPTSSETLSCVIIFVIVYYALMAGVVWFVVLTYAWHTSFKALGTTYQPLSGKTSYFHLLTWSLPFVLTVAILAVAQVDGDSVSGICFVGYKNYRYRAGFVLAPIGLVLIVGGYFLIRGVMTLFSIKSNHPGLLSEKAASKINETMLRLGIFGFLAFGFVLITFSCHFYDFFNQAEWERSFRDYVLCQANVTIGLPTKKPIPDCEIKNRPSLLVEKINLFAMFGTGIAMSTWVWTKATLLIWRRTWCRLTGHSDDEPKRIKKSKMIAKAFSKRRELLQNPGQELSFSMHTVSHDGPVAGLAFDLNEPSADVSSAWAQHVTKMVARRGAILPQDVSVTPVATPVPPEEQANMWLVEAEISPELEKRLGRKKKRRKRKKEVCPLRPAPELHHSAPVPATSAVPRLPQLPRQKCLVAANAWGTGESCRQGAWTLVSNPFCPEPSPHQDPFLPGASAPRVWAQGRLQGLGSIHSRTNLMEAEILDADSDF
- ASSAY REMARKS: Antagonist activity at mouse Smo receptor expressed in CHO cells by [3H]Hh-Ag binding assay
READOUT NAME: IC50 (µM)
Please state the figure in µM; there is no need to write the unit.

Sample records with IC50:
Cc1cccc(C(=O)Nc2ccc3c(c2)C[C@H](NCc2nccs2)C3)c1-c1ccc(C(F)(F)F)cc1	1.19
Cc1cccc(C(=O)Nc2ccc3c(c2)C[C@@H](NCC2CCOC2)C3)c1-c1ccc(C(F)(F)F)cc1 (stereo partly drawn)	16.7
Cc1cccc(C(=O)Nc2ccc3c(c2)C[C@@H](NC(C)c2ccccc2)C3)c1-c1ccc(C(F)(F)F)cc1 (stereo partly drawn)	0.029
Cc1cccc(C(=O)Nc2ccc3c(c2)C[C@@H](Nc2ccccc2)C3)c1-c1ccc(C(F)(F)F)cc1	0.082

Problem: Observed IC50 on Protein smoothened (Mus musculus, UniProt P56726) for `Cc1cccc(C(=O)Nc2ccc3c(c2)C[C@@H](NCc2ccco2)C3)c1-c1ccc(C(F)(F)F)cc1` , please.
Result: 0.014

Problem: Observed IC50 on Protein smoothened (Mus musculus, UniProt P56726) for COC(=O)NC1Cc2ccc(NC(=O)c3cccc(C)c3-c3ccc(C(F)(F)F)cc3)cc2C1 (racemic) , please.
Result: 2.96

Problem: Observed IC50 on Protein smoothened (Mus musculus, UniProt P56726) for `CC(=O)Nc1ccc(CN[C@H]2Cc3ccc(NC(=O)c4cccc(C)c4-c4ccc(C(F)(F)F)cc4)cc3C2)cc1` , please.
Result: 0.36

Problem: Observed IC50 on Protein smoothened (Mus musculus, UniProt P56726) for `Cc1cccc(C(=O)Nc2ccc3c(c2)C[C@@H](NCc2ccccn2)C3)c1-c1ccc(C(F)(F)F)cc1` , please.
Result: 0.057

====

- ASSAY SYSTEM: Protein smoothened (Homo sapiens)
- Sequence (Q99835 whole entry): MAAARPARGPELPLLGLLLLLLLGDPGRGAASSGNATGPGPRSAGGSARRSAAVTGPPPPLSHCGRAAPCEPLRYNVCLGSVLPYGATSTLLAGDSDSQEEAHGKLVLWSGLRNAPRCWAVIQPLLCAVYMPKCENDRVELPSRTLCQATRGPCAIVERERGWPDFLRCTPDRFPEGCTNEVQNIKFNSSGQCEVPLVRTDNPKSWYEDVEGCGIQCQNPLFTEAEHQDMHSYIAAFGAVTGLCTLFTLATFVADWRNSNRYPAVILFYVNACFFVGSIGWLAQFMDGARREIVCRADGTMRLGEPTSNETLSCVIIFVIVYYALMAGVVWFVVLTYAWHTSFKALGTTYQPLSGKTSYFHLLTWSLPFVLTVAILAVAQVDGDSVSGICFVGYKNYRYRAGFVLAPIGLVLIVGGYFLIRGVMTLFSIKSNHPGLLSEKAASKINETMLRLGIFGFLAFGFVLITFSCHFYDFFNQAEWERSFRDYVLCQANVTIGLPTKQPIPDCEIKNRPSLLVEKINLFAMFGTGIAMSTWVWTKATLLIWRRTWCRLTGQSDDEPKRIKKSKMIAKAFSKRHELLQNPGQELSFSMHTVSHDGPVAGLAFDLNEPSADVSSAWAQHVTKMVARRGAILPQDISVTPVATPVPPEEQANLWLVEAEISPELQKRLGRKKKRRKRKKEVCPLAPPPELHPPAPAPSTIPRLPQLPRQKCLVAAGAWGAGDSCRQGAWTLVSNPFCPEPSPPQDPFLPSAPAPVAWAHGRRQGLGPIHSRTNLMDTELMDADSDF
- ASSAY REMARKS: Antagonist activity at human Smo receptor expressed in CHO cells by [3H]Hh-Ag binding assay
This listing pairs compounds with measured pIC50.
As a rule, pIC50 stands for the negative log10 of the concentration, concentration in M.

Sample records with pIC50:
COC(=O)NC1Cc2ccc(NC(=O)c3cccc(C)c3-c3ccc(C(F)(F)F)cc3)cc2C1 (racemic)	5.57
COc1ccc(CN[C@H]2Cc3ccc(NC(=O)c4cccc(C)c4-c4ccc(C(F)(F)F)cc4)cc3C2)cc1	6.92

Now consider a different compound.
Problem: So what's the measured pIC50 for this one? `Cc1cccc(C(=O)Nc2ccc3c(c2)C[C@@H](NCc2cnc4ccccc4c2)C3)c1-c1ccc(C(F)(F)F)cc1`
Result: 6.68

====

- ASSAY SYSTEM: Protein smoothened (Homo sapiens)
- ASSAY REMARKS: Antagonist activity at human Smo receptor expressed in CHO cells by [3H]Hh-Ag binding assay
READOUT NAME: IC50
Reply with the number and its unit after it.

Problem: So what's the measured IC50 for this one? `Cc1cccc(C(=O)Nc2ccc3c(c2)C[C@@H](NCc2ccccn2)C3)c1-c1ccc(C(F)(F)F)cc1`
Result: 120 nM

Problem: So what's the measured IC50 for this one? `Cc1cccc(C(=O)Nc2ccc3c(c2)C[C@@H](NCc2nccs2)C3)c1-c1ccc(C(F)(F)F)cc1`
Result: 30 nM

Problem: So what's the measured IC50 for this one? `CC(=O)Nc1ccc(CN[C@H]2Cc3ccc(NC(=O)c4cccc(C)c4-c4ccc(C(F)(F)F)cc4)cc3C2)cc1`
Result: 340 nM

Problem: So what's the measured IC50 for this one? O=C(Nc1ccc2c(c1)CC(NCc1ccccn1)C2)c1ccccc1-c1ccccc1 (racemic)
Result: 1150 nM

Problem: So what's the measured IC50 for this one? `Cc1cccc(C(=O)Nc2ccc3c(c2)C[C@@H](Nc2ccccc2)C3)c1-c1ccc(C(F)(F)F)cc1`
Result: 130 nM

Problem: So what's the measured IC50 for this one? `COC(=O)N[C@@H]1Cc2ccc(NC(=O)c3cccc(C)c3-c3ccc(C(F)(F)F)cc3)cc2C1`
Result: 3420 nM

Problem: So what's the measured IC50 for this one? `Cc1cccc(C(=O)Nc2ccc3c(c2)C[C@@H](NCc2ccncc2)C3)c1-c1ccc(C(F)(F)F)cc1`
Result: 240 nM

Problem: So what's the measured IC50 for this one? `Cc1cccc(C(=O)Nc2ccc3c(c2)C[C@@H](NCc2cccs2)C3)c1-c1ccc(C(F)(F)F)cc1`
Result: 7 nM

====

This listing pairs compounds with measured IC50.
- ASSAY REMARKS: Inhibition of Hedgehog signaling pathway in mouse TM3 cells bearing pTA-8xGli-Luc reporter construct assessed as transcriptional modulation of Gli after 48 hrs by luciferase assay
- MEASUREMENT CONTEXT: TM3, 48 h
Please state the figure in nM; there is no need to write the unit.

Cc1cccc(C(=O)Nc2ccc3c(c2)CC(NCc2ccccc2)C3)c1-c1ccc(C(F)(F)F)cc1 (racemic)	93
Cc1cccc(C(=O)Nc2ccc3c(c2)C[C@@H](NCc2cccs2)C3)c1-c1ccc(C(F)(F)F)cc1	10
COc1ccc(CN[C@H]2Cc3ccc(NC(=O)c4cccc(C)c4-c4ccc(C(F)(F)F)cc4)cc3C2)cc1	360
Cc1cccc(C(=O)Nc2ccc3c(c2)C[C@@H](NC(c2ccccc2)C(F)(F)F)C3)c1-c1ccc(C(F)(F)F)cc1 (stereo partly specified)	33
Cc1ccc(-c2ccc(C(F)(F)F)cc2)c(C(=O)Nc2ccc3c(c2)CC(NCc2ccccn2)C3)c1 (racemic)	6800

Problem: So what's the measured IC50 for this one? `Cc1cccc(C(=O)Nc2ccc3c(c2)C[C@@H](NCc2ccco2)C3)c1-c1ccc(C(F)(F)F)cc1`
Result: 23

Problem: So what's the measured IC50 for this one? `Cc1cccc(C(=O)Nc2ccc3c(c2)C[C@@H](Nc2ccccc2)C3)c1-c1ccc(C(F)(F)F)cc1`
Result: 41

Problem: So what's the measured IC50 for this one? O=C(Nc1ccc2c(c1)CC(NCc1ccccn1)C2)c1ccccc1-c1ccc(Cl)cc1 (racemic)
Result: 4950

Problem: So what's the measured IC50 for this one? `Cc1cccc(C(=O)Nc2ccc3c(c2)C[C@@H](NCc2ccccn2)C3)c1-c1ccc(C(F)(F)F)cc1`
Result: 100

Problem: So what's the measured IC50 for this one? `Cc1cccc(C(=O)Nc2ccc3c(c2)C[C@H](NCc2ccccn2)C3)c1-c1ccc(C(F)(F)F)cc1`
Result: 4890

Problem: So what's the measured IC50 for this one? O=C(Nc1ccc2c(c1)CC(NCc1ccccn1)C2)c1ccccc1-c1ccc(C(F)(F)F)cc1 (racemic)
Result: 200

Problem: So what's the measured IC50 for this one? `Cc1ccc(CN[C@H]2Cc3ccc(NC(=O)c4cccc(C)c4-c4ccc(C(F)(F)F)cc4)cc3C2)o1`
Result: 8

Problem: So what's the measured IC50 for this one? `CC1=C2C[C@H]3[C@@H](CC=C4C[C@@H](O)CC[C@@]43C)[C@@H]2CC[C@]12O[C@@H]1C[C@H](C)CN[C@H]1[C@H]2C`
Result: 46

Problem: So what's the measured IC50 for this one? Cc1cccc(C(=O)Nc2ccc3c(c2)C[C@@H](NCC2CCOC2)C3)c1-c1ccc(C(F)(F)F)cc1 (stereo partly specified)
Result: 3700

Problem: So what's the measured IC50 for this one? `COC(=O)N[C@H]1Cc2ccc(NC(=O)c3cccc(C)c3-c3ccc(C(F)(F)F)cc3)cc2C1`
Result: 2150

====

- ASSAY SYSTEM: Protein smoothened (Mus musculus)
- ASSAY REMARKS: Antagonist activity at mouse Smo receptor expressed in CHO cells by [3H]Hh-Ag binding assay
READOUT NAME: pIC50
As a rule, pIC50 stands for the negative log10 of the concentration, concentration in M.

Sample records with pIC50:
Cc1cccc(C(=O)Nc2ccc3c(c2)C[C@@H](NC(c2ccccc2)C(F)(F)F)C3)c1-c1ccc(C(F)(F)F)cc1 (some centres not stated)	7.24
O=C(Nc1ccc2c(c1)CC(NCc1ccccn1)C2)c1ccccc1-c1ccccc1 (racemic)	5.85
COC(=O)N[C@@H]1Cc2ccc(NC(=O)c3cccc(C)c3-c3ccc(C(F)(F)F)cc3)cc2C1	5.61

Problem: So what's the measured pIC50 for this one? `COC(=O)N[C@H]1Cc2ccc(NC(=O)c3cccc(C)c3-c3ccc(C(F)(F)F)cc3)cc2C1`
Result: 5.29

Problem: So what's the measured pIC50 for this one? `Cc1cccc(C(=O)Nc2ccc3c(c2)C[C@@H](NCc2cnc4ccccc4c2)C3)c1-c1ccc(C(F)(F)F)cc1`
Result: 6.46

Problem: So what's the measured pIC50 for this one? `Cc1ccc(CN[C@H]2Cc3ccc(NC(=O)c4cccc(C)c4-c4ccc(C(F)(F)F)cc4)cc3C2)o1`
Result: 8.22

====

- ASSAY REMARKS: Inhibition of Hedgehog signaling pathway in mouse TM3 cells bearing pTA-8xGli-Luc reporter construct assessed as transcriptional modulation of Gli after 48 hrs by luciferase assay
- MEASUREMENT CONTEXT: TM3, 48 h
This listing pairs compounds with measured pIC50.
As a rule, pIC50 stands for the negative log10 of the concentration, concentration in M.

Sample records with pIC50:
O=C(Nc1ccc2c(c1)CC(NCc1ccccn1)C2)c1ccccc1-c1ccccc1 (racemic)	6.00
Cc1cccc(C(=O)Nc2ccc3c(c2)C[C@@H](NCc2ccccc2)C3)c1-c1ccc(C(F)(F)F)cc1	7.68
Cc1cccc(C(=O)Nc2ccc3c(c2)C[C@@H](NCc2cnc4ccccc4c2)C3)c1-c1ccc(C(F)(F)F)cc1	5.89

Now consider a different compound.
Problem: So what's the measured pIC50 for this one? Cc1cccc(C(=O)Nc2ccc3c(c2)CC(NC(=O)c2ccccc2)C3)c1-c1ccc(C(F)(F)F)cc1 (racemic)
Result: 6.22
